Test system: NCI-H522 lung
Assay: NCI tumour cell line growth inhibition, 48 h
Parameter: TGI

Solved entries:
• CC(=O)OCc1cncn1S(=O)(=O)c1ccc(C)cc1 = > 100 µM
• CCCC(C)n1c(C)nc2c1C(=O)c1ccccc1C2=O (stereo not given) = 97 µM
• CN(C)c1ccc(/C=C/c2ccc(/C=C/c3ccc(N(C)C)cc3)cc2)cc1 = > 100 µM
• CCCCCCNC(=O)Oc1ccc(/C(=C(/C)Cc2ccc(OC)cc2)c2ccc(OCCCN(C)C)cc2)cc1 = 31.3 µM
• CNC(=S)N/N=C(\C(=N/NC(=S)NC)c1ccccn1)c1ccccn1 = 72.8 µM

Entry under review: COc1cc(C2=NNC(=O)c3ccccc3N2c2nc(-c3cccs3)nc3ccc(Br)cc23)cc(OC)c1OC . Reported TGI?
> 100 µM

Entry under review: CC(=O)N1N=C(c2ccc(Nc3ccnc4cc(Cl)ccc34)cc2)CC1c1ccc(Cl)cc1 (stereo not given) . Reported TGI?
> 100 µM

Entry under review: N#CC1CCCCOCCOCCOCCOCCOCCCCCC1=O (stereo not given) . Reported TGI?
> 100 µM

Entry under review: O=S(OC12CC3CC(CC(C3)C1)C2)c1cc(Cl)cc(Cl)c1OCc1ccccc1 (stereo not given) . Reported TGI?
37.1 µM

Entry under review: Cc1cn(C2CC(N)C(C(=O)NCC(=O)O)O2)c(=O)[nH]c1=O (stereo not given) . Reported TGI?
> 100 µM

###

Each entry below lists one item and its recorded GI50 value.
Test system: MDA-MB-231 breast
Assay: NCI tumour cell line growth inhibition, 48 h

Solved entries:
- COC1=C(C)C(=O)c2c(c(CCCl)c3n2CCC3O)C1=O (stereo unspecified): 21.8 µM
- CC1=CC(=O)C(C(C)C)=CC1=Nc1cc(Br)c(O)c(Br)c1: 3.65 µM
- O=[N+]([O-])c1ccc(Oc2nc(Nc3ccc(O[C@H]4CO[C@H]5[C@@H]4OC[C@@H]5O)c(Cl)c3)ncc2F)c(Cl)c1: 1.6 µM
- COc1cccc(-c2nn(-c3ccccc3)cc2-c2ccnc(NCCNC(=O)Nc3cccc(C(F)(F)F)c3)c2)c1: 1.97 µM
- COc1ccc2c(C3(c4cn(C)c5cc(OC)ccc45)C(=O)Nc4ccc(Cl)cc43)cn(C)c2c1: 1.53 µM

Entry under review: Brc1ccc2[nH]cc(-c3nc(-c4c[nH]c5ncccc45)cs3)c2c1 . Reported GI50?
1.59 µM

Entry under review: COc1cccc(/C=N/NC(=S)NC2CC3CCC2C3)c1O (stereo unspecified) . Reported GI50?
4.88 µM

Entry under review: N[C@@H]1C(=O)N2C(C(=O)OC(c3ccccc3)c3ccccc3)=C(CCl)CS[C@H]12 . Reported GI50?
25.2 µM

Entry under review: COc1cc2c(cc1OC)C(Sc1ccc(SC)cc1)c1c(nc(N)c(C#N)c1N)O2 (stereo unspecified) . Reported GI50?
1.55 µM

Entry under review: Cn1nc(-c2ccc(Cl)cc2)nc2c(=O)n(C)c(=O)nc1-2 . Reported GI50?
1.28 µM

Entry under review: COc1ccc(-c2ccc(-c3ccc(C(=N)N)nc3)s2)cc1Cl . Reported GI50?
1.7 µM

Entry under review: Cc1cc2cc3ccc(N(C)C)cc3nc2cc1N . Reported GI50?
1.12 µM

Entry under review: N#Cc1c(Br)n(C2OC(CO)C(O)C2O)c2ncnc(N)c12 (stereo unspecified) . Reported GI50?
3.82 µM

Entry under review: C=C1C(=O)O[C@H]2[C@H]1CC/C(COC(=O)CCSCCC(=O)OC/C1=C/CC[C@@]3(C)O[C@H]3[C@H]3OC(=O)C(=C)[C@@H]3CC1)=C\CC[C@@]1(C)O[C@@H]21 . Reported GI50?
1.09 µM

Entry under review: CCOc1cc(Br)c(C(C)NC(=O)c2cccc(OC)c2)cc1OCC (stereo unspecified) . Reported GI50?
8.59 µM

Entry under review: Oc1ccc(O)c(-c2cc(-c3ccc(Cl)cc3)nn2-c2ccccc2)c1 . Reported GI50?
2.33 µM
